B1: LOXL2 (parent)
chain: YVEVKEGKTWKQICDKHWTAKNSR

Variants of: B1
Assay: protein stability index of a GFP-peptide fusion (GPS, HEK-293T) (PSI 1-6); higher = more stable;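 further: lentivirally expressed fusions sorted by FACS into six bins by GFP to DsRed ratio, PSI derived from sequencing read proportions per bin multiplied by bin number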
Details: c terminus: a fixed tail appended
recordedEndpoint: protein stability index

Would you please look over these solved cases?
YVEVKEGKTWKQICDKHWTPKNSR [A20P] = 1.67
YVEVKEGKTWKQICDKCWTAKNSR [H17C] = 1.56
YVEVKWGKTWKQICDKHWTAKNSR [E6W] = 2.16

For every item in the list below, what is its measured protein stability index?
1. YVEVKEHKTWKQICDKHWTAKNSR [G7H]
2. YVEVDEGKTWKQICDKHWTAKNSR [K5D]
3. YVKVKEGKTWKQICDKHWTAKNSR [E3K]
4. YVEVIEGKTWKQICDKHWTAKNSR [K5I]

[1.62, 2.54, 2.68, 2.46]

For every item in the list below, what is its measured protein stability index?
1. YVEVKEGKTWKQICDKHWTAKNSG [R24G]
2. YVCVKEGKTWKQICDKHWTAKNSR [E3C]
3. YEEVKEGKTWKQICDKHWTAKNSR [V2E]

1. 1.53
2. 1.44
3. 3.7

Returns the measured protein stability index for the input variant. Input: GVEVKEGKTWKQICDKHWTAKNSR [Y1G]
3.72
